# Measurement target: human orexin 2 receptor (Homo sapiens (Human), UniProt O43614)
# Sequence (O43614 whole entry): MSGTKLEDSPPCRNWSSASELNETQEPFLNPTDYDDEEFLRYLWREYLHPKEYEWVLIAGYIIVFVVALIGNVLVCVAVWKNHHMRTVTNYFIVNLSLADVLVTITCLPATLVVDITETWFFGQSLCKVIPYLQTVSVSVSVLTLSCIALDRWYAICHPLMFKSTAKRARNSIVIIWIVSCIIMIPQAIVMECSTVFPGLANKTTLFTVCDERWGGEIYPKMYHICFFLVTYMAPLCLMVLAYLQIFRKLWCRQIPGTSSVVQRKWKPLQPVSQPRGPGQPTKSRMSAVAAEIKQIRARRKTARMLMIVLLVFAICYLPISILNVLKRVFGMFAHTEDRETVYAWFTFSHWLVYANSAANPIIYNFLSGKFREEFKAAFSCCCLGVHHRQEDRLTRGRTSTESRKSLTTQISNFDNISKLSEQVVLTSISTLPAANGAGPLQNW
# Test details: Human orexin 2 receptor Ca2+ mobilization assay (FLIPR, PFSK cells, orexin B 100 nM)
# Assay type: cell-based
# Conditions: modified Cheng-Prusoff correction, read-out: OR 2 Kb
# Protocol: Human Orexin 2 Receptor Ca^2+ Mobilization Assay Cells were seeded on to 96-well Packard viewplates at a density of 50,000 cells/well and incubated overnight at 37° C., 5% CO2. […] Ligand-induced Ca^2+ release was measured using a Fluorometric Imaging Plate Reader (FLIPR, Molecular Devices, Sunnyvale, Calif.). Functional responses were measured as peak fluorescence intensity minus basal. […] Data are expressed as mean±S.E.M, the designation of NT means not tested.
Output met for records whose Kb is lower than 20 nM, not met for records at or above 20 nM.

>>> df
                                    compound  category
 0  Cc1ccnc(-c2c(F)cccc2C(=O)N2CC3CN(c4nc(C)cc(C)n4)CC3C2)c1 (centres unmarked) [Example 373]       met
 1  Cc1cc(C)nc(N2CC3CN(C(=O)c4cccnc4-c4ccn[nH]4)CC3C2)n1 (centres unmarked) [Example 237]       met
 2  Cc1cc(C)nc(N2CC3CN(C(=O)c4cccc(F)c4-c4ncccc4F)CC3C2)n1 (centres unmarked) [Example 375]       met
 3  O=C(c1ccccc1-n1nccn1)N1CC2CN(c3nc4ccccc4o3)CC2C1 (centres unmarked) [Example 144]   not met
 4  Cc1cc(C)nc(N2CC3CN(C(=O)c4occc4-c4ccccc4)CC3C2)n1 (centres unmarked) [Example 13]   not met
 5  CCOc1ccccc1C(=O)N1CC2CN(c3nc(C)cc(C)n3)CC2C1 (centres unmarked) [Example 88]   not met
 6  CN(C)c1cc(N2CC3CN(C(=O)c4cc(F)ccc4-n4nccn4)CC3C2)nc(C(F)(F)F)n1 (centres unmarked) [Example 9]   not met
 7  O=C(c1ccccc1-c1ccccc1)N1CC2CN(c3cnc4ccccc4n3)CC2C1 (centres unmarked) [Example 168]   not met
 8  Cc1cnc(C)c(N2CC3CN(C(=O)c4ccccc4-n4nccn4)CC3C2)n1 (centres unmarked) [Example 155]       met
 9  O=C(c1ccccc1-c1cccs1)N1CC2CN(c3nccc(-c4cn[nH]c4)n3)CC2C1 (centres unmarked) [Example 62]   not met
10  COc1cc(OC)nc(N2CC3CN(C(=O)c4c(F)cccc4-c4ncccn4)CC3C2)n1 (centres unmarked) [Example 68]       met
11  COc1cc(OC)nc(N2CC3CN(C(=O)c4ccccc4-c4cccs4)CC3C2)n1 (centres unmarked) [Example 138]   not met
12  Cc1nc(N2CC3CN(C(=O)c4ccccc4-c4ncn(C)n4)CC3C2)nc(C)c1C (centres unmarked) [Example 311]       met
13  COc1ccc(C(=O)N2CC3CN(c4nccc(-c5ccccc5)n4)CC3C2)c(OC)c1 (centres unmarked) [Example 167]   not met
14  Cc1cc(C)nc(N2CC3CN(C(=O)c4cccc5c4-c4ccccc4C5)CC3C2)n1 (centres unmarked) [Example 326]       met

###

# Measurement target: UniProt O43614
# Test details: Human orexin 2 receptor Ca2+ mobilization assay (FLIPR, PFSK cells, orexin B 100 nM)
# Assay type: cell-based
# Conditions: modified Cheng-Prusoff correction, read-out: OR 2 Kb
Measured attribute: Kb (µM)

>>> df
                                    compound  measurement_target  number
 0  Cc1nc(N2CC3CN(C(=O)c4ncccc4-n4nccn4)CC3C2)nc(C)c1F (centres unmarked) [Example 325]      UniProt O43614   0.002
 1  COc1ccc(C(=O)N2CC3CN(c4cnc5cc(F)c(F)cc5n4)CC3C2)c(-n2nccn2)c1 (centres unmarked) [Example 389]      UniProt O43614   0.014
 2  Cc1cc(C)nc(N2CC3CN(C(=O)c4cc(F)ccc4-c4ncccn4)CC3C2)n1 (centres unmarked) [Example 74]      UniProt O43614    0.01
 3  COc1ccc(-n2nccn2)c(C(=O)N2CC3CN(c4nc(C)c(C)c(C)n4)CC3C2)c1 (centres unmarked) [Example 241]      UniProt O43614   0.007
 4  Cc1nc(N2CC3CN(C(=O)c4ncccc4-n4nccn4)CC3C2)nc(C)c1C (centres unmarked) [Example 323]      UniProt O43614   0.004
 5  Cc1cc(N(C)C)nc(N2CC3CN(C(=O)c4ccccc4-n4nccn4)CC3C2)n1 (centres unmarked) [Example 119]      UniProt O43614   0.013
 6  O=C(c1cc(F)ccc1-c1ncccn1)N1CC2CN(c3cnc4ccccc4n3)CC2C1 (centres unmarked) [Example 146]      UniProt O43614   0.016
 7  O=C(c1c(F)cccc1-n1nccn1)N1CC2CN(c3cnc4cc(F)c(F)cc4n3)CC2C1 (centres unmarked) [Example 246]      UniProt O43614   0.011
 8  O=C(c1ccccc1-c1ccccc1)N1CC2CN(c3nc4ccc(F)cc4s3)CC2C1 (centres unmarked) [Example 176]      UniProt O43614   0.158
 9  Cc1cncc(N2CC3CN(C(=O)c4ccc(F)cc4-n4nccn4)CC3C2)n1 (centres unmarked) [Example 158]      UniProt O43614   0.008
10  Cc1ccnc(N2CC3CN(C(=O)c4ccccc4-c4cccs4)CC3C2)c1 (centres unmarked) [Example 136]      UniProt O43614    0.05
11  Cc1noc(-c2c(F)cccc2C(=O)N2CC3CN(c4ncc(F)c(C)n4)CC3C2)n1 (centres unmarked) [Example 440]      UniProt O43614   0.015
12  Cc1cc(C)nc(N2CC3CN(C(=O)c4ccccc4OC(F)(F)F)CC3C2)n1 (centres unmarked) [Example 274]      UniProt O43614   0.016
13  Cc1ccc(-c2c(F)cccc2C(=O)N2CC3CN(c4nc(C)cc(C)n4)CC3C2)nc1 (centres unmarked) [Example 374]      UniProt O43614   0.012
14  O=C(c1ccccc1-n1nccn1)N1CC2CN(c3nccc(-c4ccccc4)n3)CC2C1 (centres unmarked) [Example 131]      UniProt O43614   0.079
15  Cc1nc(N2CC3CN(C(=O)c4cccc(F)c4-c4ncccn4)CC3C2)nc(C)c1C (centres unmarked) [Example 239]      UniProt O43614   0.004
16  COc1ccnc(N2CC3CN(C(=O)c4ccccc4-n4nccn4)CC3C2)n1 (centres unmarked) [Example 156]      UniProt O43614   0.016
